Cited source for all entries: patent US20260116970A1

target: T1, recombinant hSIRPα (extracellular portion) (human, UniProt P78324 31-373, biotinylated with Sulfo-NHS-LC-LC-Biotin where immobilised on streptavidin sensors); assay: BLI, biotinylated hSIRPα immobilised on streptavidin biosensors, Nb in solution, global 1:1 fit
T1 construct: extracellular domain; The limits aa31-370 are stated for the immunogen; The BLI and HDX text says only 'recombinant hSIRPα' / 'biotinylated hSIRPα'; also called biotinylated hSIRPα
T1 sequence (P78324 31-373): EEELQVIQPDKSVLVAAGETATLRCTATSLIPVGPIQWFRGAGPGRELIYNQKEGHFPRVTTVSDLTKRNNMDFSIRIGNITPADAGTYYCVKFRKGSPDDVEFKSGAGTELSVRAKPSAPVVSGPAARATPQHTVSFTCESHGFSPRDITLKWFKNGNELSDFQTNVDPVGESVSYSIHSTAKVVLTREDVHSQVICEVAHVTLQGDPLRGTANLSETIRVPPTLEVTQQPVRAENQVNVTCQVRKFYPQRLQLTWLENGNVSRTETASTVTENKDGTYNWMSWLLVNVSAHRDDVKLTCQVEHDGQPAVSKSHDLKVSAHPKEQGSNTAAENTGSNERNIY
pKd: −log10 of the molar value.
Mark rule not met for pKd values under 8, and rule met for everything at or above.

Worked set:
Prompt line: Form field: pKd at least 8? Entry: hSIRPα nanobody S8 (VHH, Purified by IMAC; the tag is not described; also called Nb S8) VHH: QVQLVESGGGLVQPGGSLRLSCADSEFRLDEYATGWFRQAPGKEREGVACISRSGSNTKYTDSVKGRFTISRDNAKKTVYLQMNSLKPEDTAVYYCAADLTSHYLSCSSYTDYNSWGQGTQVTVSS
Response line: rule met

Prompt line: Form field: pKd at least 8? Entry: hSIRPα nanobody S44 (VHH, also called Nb S44) VHH: QVQLQESGGGLVQPGGSLRLACAASGFTFSSYDMSWVRQAPGKGLEWVSDIKSGGGRTYYADSVKGRFTISRDNAKNTVYLQMNSLKPEDTAVYYCGSLDNSGAYTGGGQGSQVTVSS
Response line: rule met

***
Prompt line: Form field: pKd at least 8? Entry: hSIRPα nanobody S41 (VHH, The single assignment S41 = 26 follows only from the listing order; also called Nb S41) VHH: HVQLVESGGGLVQPGGSLRLSCAASGETLDYYAIGYVRQAPGKEREGVSCISSRGDNTNYADSVKGRFTISRDNANNTVYLQMNSLKPEDTAVYYCVAIKDSWQNYYCSVGWVEYDVWGQGTQVTVSS
Response line: rule met

Prompt line: Form field: pKd at least 8? Entry: hSIRPα nanobody S45 (VHH, also called Nb S45) VHH: HVQLVESGGGLVQPGGSLRLSCAARGFSFRDSAMSWARQAPGKGLEWVGAIYSDGSTVYEKSVKGRFTISRDNAKNTMYLQMHSLKPEDSARYYCAPKGVVADEGDYSGQGTLVTVSS
Response line: rule met

Prompt line: Form field: pKd at least 8? Entry: hSIRPα nanobody S33 (VHH, also called Nb S33) VHH: EVQLVESGGGLVQPGGSLRLSCTTSGFTLDYYSVGWFRQAPGKEREGVSCITASGSSTNYANSVKGRFTISRDKVKNTVYLQMSSLKPEDTAVYYCAAEPCTVVAGILQAPTSDFGSWGQGTQVTVSS
Response line: rule not met
